Tested on: CEM cells HIV-1 protection, formazan growth assay
procedure.summary: NCI AIDS Antiviral Assay
assay.conditions: measured here: growth of uninfected CEM cells
recorded.endpoint: log10 of IC50 (log10 of the value in µM)

[
  {
    "molecule": "CO[C@]12[C@@H](COC(=O)NCCO)C3=C(C(=O)C(C)=C(N)C3=O)N1C[C@@H]1[C@H]2N1C (some centres undefined)",
    "log10 of IC50": 1.72
  },
  {
    "molecule": "C[N+]12CCCCC1C(COc1cccc3cccnc13)CCC2 (centres undefined)",
    "log10 of IC50": 2.07
  },
  {
    "molecule": "CC(=O)NC1=C(C)C(=O)c2c(nc3n2CCC3OC(=O)c2ccccc2)C1=N (centres undefined)",
    "log10 of IC50": -0.04
  },
  {
    "molecule": "CN(C)CCOc1ccc([N+](=O)[O-])c2cccnc12",
    "log10 of IC50": 1.70
  },
  {
    "molecule": "O=C(CC(C(=O)c1cccs1)c1cccs1)c1ccccc1Cl (centres undefined)",
    "log10 of IC50": 1.27
  }
]

----------
System: CEM cells HIV-1 protection, formazan growth assay
procedure.summary: NCI AIDS Antiviral Assay
Where a SMILES comes first, the peptide text is derived from it.

[
  {
    "molecule": "N#Cc1ccc([N+](=O)[O-])cc1NC(N)=S",
    "EC50": "> 224 µM"
  },
  {
    "molecule": "O=c1[nH]c(NCCCCCO)nc2nc[nH]c12",
    "EC50": "> 200 µM"
  },
  {
    "molecule": "O=C(CC(=O)c1ccccc1)CC(O)(c1ccccc1)c1ccccc1",
    "EC50": "> 11 µM"
  },
  {
    "molecule": "CSc1nc(C)cc(Nc2ccc(O)c(CN3CCCCC3)c2)n1",
    "EC50": "> 155 µM"
  },
  {
    "molecule": "Cc1ccccc1-n1c(C)nc2ccccc2c1=O",
    "EC50": "> 269 µM"
  },
  {
    "molecule": "CCCCCCCCCCCCC(C(=O)O)C(=O)O",
    "EC50": "> 251 µM"
  },
  {
    "molecule": "CN(C)/C=C/c1ccncc1",
    "EC50": "> 200 µM"
  },
  {
    "molecule": "O=Nc1c2cc3ccccc3[nH]c-2c2ccccc12",
    "EC50": "> 40.7 µM"
  },
  {
    "molecule": "CCOC(=O)c1c(Br)c(-c2ccc(OC)cc2)c(Br)n1C",
    "EC50": "> 200 µM"
  },
  {
    "molecule": "CN(/N=C(\\C(=O)O)c1ccccc1)C1=NCCCCN1",
    "EC50": "> 200 µM"
  },
  {
    "molecule": "C=C(CCC(=O)N(CCc1c[nH]c2ccccc12)C(=O)c1ccccc1CSCC)C(=O)OC",
    "EC50": "> 200 µM"
  },
  {
    "molecule": "CCOc1cc2c(cc1O)/C(=N\\O)C[C@@H]1[C@@H]2CC[C@]2(C)[C@@H](O)CC[C@@H]12",
    "EC50": "> 200 µM"
  },
  {
    "molecule": "CCC(C)C(NC(=O)C(CCC(N)=O)NC(=O)C(CCCCN)NC(=O)C(CO)NC(=O)C(CC(C)C)NC(=O)C(Cc1ccc(O)cc1)NC(=O)C(C)N)C(=O)NC(C)C(=O)NC(CO)C(=O)NC(CC(N)=O)C(=O)O (stereo not drawn) (H-AYLSKQIASN-OH; configuration not given here)",
    "EC50": "> 57.5 µM"
  },
  {
    "molecule": "CCOc1ccc(NC(=S)NC=C(C(N)=O)C(N)=O)cc1",
    "EC50": "> 200 µM"
  },
  {
    "molecule": "CNS(=O)(=O)NNS(=O)(=O)c1ccc(Br)cc1",
    "EC50": "> 75.9 µM"
  },
  {
    "molecule": "COC(=O)C(c1ccccc1)C(SCc1ccccc1)c1ccccc1 (stereo not drawn)",
    "EC50": "> 200 µM"
  },
  {
    "molecule": "COC(=O)c1cc(C(=O)OC)c(CC(=O)C(=O)Nc2ccc(Cl)c(C(F)(F)F)c2)nc1CC(=O)C(=O)Nc1ccc(Cl)c(C(F)(F)F)c1",
    "EC50": "> 200 µM"
  },
  {
    "molecule": "CC(=O)OC12/C(=N/O)CCCCCC1c1ccccc12 (stereo not drawn)",
    "EC50": "> 200 µM"
  },
  {
    "molecule": "O=C1C(=Cc2ccccc2[N+](=O)[O-])N=C(c2ccccc2)N1n1c(-c2ccccc2)nc2ccccc2c1=O",
    "EC50": "> 200 µM"
  },
  {
    "molecule": "CC(=O)OC(C)(C)/C=C/C(=O)[C@](C)(O)[C@H]1[C@H](O)C[C@@]2(C)[C@@H]3CC=C4[C@@H](C[C@H](O)C(=O)C4(C)C)[C@]3(CO)C(=O)C[C@]12C",
    "EC50": "> 4.37 µM"
  },
  {
    "molecule": "CN(C)Cc1cc(N=Nc2ccccc2)cc(CN(C)C)c1O",
    "EC50": "> 200 µM"
  },
  {
    "molecule": "COc1cc2c(cc1OC)C1Cc3ccccc3CN1CCC2 (stereo not drawn)",
    "EC50": "> 200 µM"
  },
  {
    "molecule": "O=c1[nH]ncc2c1ncn2C1CCC(CO)O1 (stereo not drawn)",
    "EC50": "195 µM"
  },
  {
    "molecule": "COc1cc2c(cc1OC)[C@H]1C(COC(=O)c3ccccc3)CSC(=Nc3ccccc3)N1CC2 (stereo partly drawn)",
    "EC50": "> 10.2 µM"
  },
  {
    "molecule": "O=c1oc2cccc(O)c2c(O)c1Cc1ccccc1",
    "EC50": "> 200 µM"
  },
  {
    "molecule": "CN(C)CC1Cc2ccsc2C1=O (stereo not drawn)",
    "EC50": "> 155 µM"
  },
  {
    "molecule": "CC(=O)OCCN1CCOC(O)(c2cccc(C(F)(F)F)c2)C1 (stereo not drawn)",
    "EC50": "> 200 µM"
  },
  {
    "molecule": "COC(=O)C1OC12CCCCC2 (stereo not drawn)",
    "EC50": "> 200 µM"
  },
  {
    "molecule": "Cc1cc(-c2c(Br)cc(C(=O)O)n2C)on1",
    "EC50": "> 200 µM"
  },
  {
    "molecule": "COc1cccc2c1C(=O)C1(O)CCCCC21 (stereo not drawn)",
    "EC50": "44.7 µM"
  },
  {
    "molecule": "CNC(=O)Nc1ccncc1",
    "EC50": "> 200 µM"
  },
  {
    "molecule": "CN(C)CCNc1ccc2c(=O)n(CCN(C)C)c(=O)n3c4ccc(N)cc4c(=O)c1c23",
    "EC50": "> 200 µM"
  },
  {
    "molecule": "CC(C)(C)OC(=O)CN1CCNCCNCC1",
    "EC50": "> 100 µM"
  },
  {
    "molecule": "COC(=O)C1OS(=O)(=O)OC1C(=O)OC (stereo not drawn)",
    "EC50": "> 200 µM"
  },
  {
    "molecule": "COC(=O)C12Oc3ccc(-c4ccc5c(c4O)C(=O)C4=CCC(C)C(O)C4(C(=O)OC)O5)c(O)c3C(=O)C1=CCC(C)C2O (stereo not drawn)",
    "EC50": "> 12 µM"
  },
  {
    "molecule": "COCOc1ccc(C(=O)C(C)c2ccc(OCOC)cc2OCOC)c(O)c1 (stereo not drawn)",
    "EC50": "> 200 µM"
  },
  {
    "molecule": "COc1ccc(-c2c(C(C)=O)c(C)n(C3OC(COC(C)=O)C(OC(C)=O)C(OC(C)=O)C3OC(C)=O)c(=S)c2C#N)cc1 (stereo not drawn)",
    "EC50": "> 200 µM"
  },
  {
    "molecule": "CNC(=O)N(CCC#N)CCCN(C(=O)NC)c1ccccc1",
    "EC50": "> 200 µM"
  },
  {
    "molecule": "O=C(O)/C=C/c1ccc(OS(=O)(=O)O)cc1",
    "EC50": "> 200 µM"
  },
  {
    "molecule": "COC(=O)C1CC2C=CC=CC(=O)C2(C)C1 (stereo not drawn)",
    "EC50": "> 251 µM"
  },
  {
    "molecule": "C=CCCC1(CCP(=O)(c2ccccc2)c2ccccc2)OCCO1",
    "EC50": "> 708 µM"
  },
  {
    "molecule": "CC1(C)C/C=C\\CCC(O)C(O)CCC(C)(C)C1=O (stereo not drawn)",
    "EC50": "> 200 µM"
  },
  {
    "molecule": "CC(=O)Nc1cc2cc(N)ccc2oc1=O",
    "EC50": "> 107 µM"
  }
]

Measured values drawn from PubChem BioAssay AID179 for this set.
